target: HIV-1 Tat (Human immunodeficiency virus 1, UniProt P04608 P04608:1-86); assay: competition; D1/2 vs 10 nM 59-mer probe (59-mer 40 nM); 60 nM vs 29-mer probe; conditions: hairpin with U-rich bulge and loop
pIC50: −log10 of the molar value.

binder	pIC50
GCCAGAUUUGAGCCUGGGAGCUCUCUGGC (ssRNA) [29-mer top part of TAR]	7.00
